Subject of test: T1, SpoIIIE motor domain (SpoIIIE C-terminal) (Bacillus subtilis, UniProt P21458 177-787)
T1 sequence: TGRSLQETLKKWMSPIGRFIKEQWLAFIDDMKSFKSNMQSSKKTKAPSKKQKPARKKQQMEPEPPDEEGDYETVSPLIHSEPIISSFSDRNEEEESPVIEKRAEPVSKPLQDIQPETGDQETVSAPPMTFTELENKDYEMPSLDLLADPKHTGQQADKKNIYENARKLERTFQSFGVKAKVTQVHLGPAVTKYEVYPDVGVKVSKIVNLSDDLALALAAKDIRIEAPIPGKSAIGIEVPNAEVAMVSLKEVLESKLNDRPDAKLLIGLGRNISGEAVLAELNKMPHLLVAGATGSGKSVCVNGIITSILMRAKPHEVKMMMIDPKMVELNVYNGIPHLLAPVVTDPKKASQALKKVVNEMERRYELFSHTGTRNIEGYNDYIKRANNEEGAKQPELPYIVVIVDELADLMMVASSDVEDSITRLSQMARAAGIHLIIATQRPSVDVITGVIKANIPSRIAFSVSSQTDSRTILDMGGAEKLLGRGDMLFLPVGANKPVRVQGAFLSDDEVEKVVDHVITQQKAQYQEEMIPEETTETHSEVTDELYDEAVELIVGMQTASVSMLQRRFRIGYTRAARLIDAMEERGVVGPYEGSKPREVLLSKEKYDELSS
Procedure details: fluorescence anisotropy
Assay metric: pKd
The scale used: pKd is minus the common logarithm of the concentration in molar units.

Prompt: Any idea what its pKd is? The binder is DNANS (43 bp, no SRS) (dsDNA) DNA 1: GCGGAGGCGGGAGGCGGAGATCTTACCGCTGTTGAGATCCAGC DNA 2: GCTGGATCTCAACAGCGGTAAGATCTCCGCCTCCCGCCTCCGC
Completion: 7.22
